FYI, the data here is from PubChem BioAssay (NCI).

Tested on: HS 578T breast
test: NCI-60 one-dose screen, 48 h (100 = growth as untreated, 0 = no growth, -100 = all killed)
experimentalConditions: 10 µM unless noted
Description: Growth inhibition of the HS 578T human tumor cell line is measured as a screen for anti-cancer activity. Cells are grown in 96 well plates and exposed to the test compound for 48 hours. Compounds are tested at a single concentration, which is 10^-5 M for most compounds. The reported endpoint is percent growth (GI% or GIPRCNT), where numbers from 0 - 100% represent growth inhibition, and numbers from -100% - 0 represent cell death. For example, a value of 40 represents 60% growth inhibition. […]
This is part of a sample that, as a whole, favours compounds with a hit. Of some 83,000 tested, about 20% had one in any assay.
Classification field: enter yes (1) for growth values not below 90%, no (0) for values below it.

CC1CCN(CC(=O)Nn2c(COc3ccccc3)nc3ccccc3c2=O)CC1 = no (0)
CCOC(=O)c1c(NCC(=O)Nc2cccc([N+](=O)[O-])c2)sc(C(C)=O)c1C = no (0)
NC(N)=NS(=O)(=O)c1ccc(N=Nc2c(N)nn(-c3ccc([N+](=O)[O-])cc3[N+](=O)[O-])c2N)cc1 = yes (1)
O=S(=O)(NCCCNc1nccc(-c2[nH]c(-c3ccccc3)nc2-c2ccc(F)c(O)c2)n1)c1cccc(F)c1 = yes (1)
O=C(/C=C/c1cccc(Br)c1)c1cccc(OCCCCOc2cccc(C(=O)/C=C/c3cccc(Br)c3)c2)c1 = yes (1)

Request: Record CC(C)(C)Nc1nc2c(OCCc3ccccc3)cccn2c1-c1cccc(Oc2ccccc2)c1 ; criterion: growth no lower than 90%. Met?
Response: no (0)

Request: Record C=C(C=O)[C@@H]1CC[C@]2(C(=O)O)CC[C@]3(C)C(CC[C@@H]4[C@@](C)(CCC#N)[C@H](C(=C)C=O)CC[C@]43C)[C@@H]12 (some centres undefined) ; criterion: growth no lower than 90%. Met?
Response: no (0)

Request: Record Cc1ccc(NC2=C(Cl)C(=O)c3nc(C)ccc3C2=O)c(C)c1 ; criterion: growth no lower than 90%. Met?
Response: no (0)

---

System: NCI-H23 lung
test: NCI-60 one-dose screen, 48 h (100 = growth as untreated, 0 = no growth, -100 = all killed)
experimentalConditions: 10 µM unless noted
The panel holds about 83,000 compounds, 20% with a hit somewhere; the sample as a whole holds those more often. Calls of active or inactive are those of the source. Rule for the calls: active = growth percent below 10; inactive = the rest.
parameterMeasured: growth

COc1cc2cc(Oc3ccc(NC(=O)c4cc(C(F)(F)F)cc(C(F)(F)F)c4)cc3)c(C)nc2cc1OCCN1CCOCC1 = 66.9% (inactive)
CS(=O)(=O)c1ccc(/C(=N/N=C(N)N)c2ccc(Cl)cc2)cc1 = 95.4% (inactive)
CCOC(=O)c1c(NC(=O)c2cccc(C(F)(F)F)c2)sc2c3c(ccc12)OCN(C)C3 = 83.6% (inactive)
Oc1[nH]c2ccc(Cl)cc2c1N=Nc1nc(N=Nc2c(O)[nH]c3ccc(Cl)cc23)nc(N2CCOCC2)n1 = 17.2% (inactive)
O=C(CCl)Nc1ccc(NC(=O)c2cc(Cl)ccc2O)c(Cl)c1 = 29% (inactive)

Request: If you can, please state the reported growth value of Cc1ccc(N2CCN(C3=C(Cl)C(=O)c4ncccc4C3=O)CC2)cc1 .
Response: 35.6% (inactive)

---

System: UACC-62 melanoma
test: NCI-60 one-dose screen, 48 h (100 = growth as untreated, 0 = no growth, -100 = all killed)
experimentalConditions: 10 µM unless noted
The panel holds about 83,000 compounds, 20% with a hit somewhere; the sample as a whole holds those more often.
parameterMeasured: growth (%)
The reply should contain only the number, in %.

Previously resolved entries follow.
NS(=O)(=O)c1ccc(Nc2nc(Nc3ccccc3)nc(N3N=C(c4ccc(Cl)cc4)CC3c3ccc(Cl)cc3)n2)cc1 (stereo not drawn) = 97.6
O=C(N/N=C\c1ccc([N+](=O)[O-])cc1)c1ccc2nc(-c3ccc(Br)cc3)[nH]c2c1 = 31.4

Request: If you can, please state the reported growth value of COC(=O)c1cccc(NC2=C(Cl)C(=O)c3nc(C)ccc3C2=O)c1 .
Response: 95.4

Request: If you can, please state the reported growth value of COC(=O)CNC(=O)c1cccc(-c2cc(=O)c3c(OC)c(OC)c(OC)cc3o2)c1 .
Response: 90.2

Request: If you can, please state the reported growth value of CC(=O)OC[C@]12CC[C@@H](C(=O)/C=C/c3cccnc3)[C@@H]1[C@H]1CC[C@@H]3[C@@]4(C)CC[C@H](OC(C)=O)C(C)(C)[C@@H]4CC[C@@]3(C)[C@]1(C)CC2 .
Response: -4.76

Request: If you can, please state the reported growth value of C#CCOc1ccc(-c2csc(NC(=O)C=C)n2)cc1NS(=O)(=O)c1cccc2c(N(C)C)cccc12 .
Response: 37.1

Request: If you can, please state the reported growth value of COc1ccc2c(c1)C=CC1(O2)Oc2ccc(OC)cc2C=C1C (stereo not drawn) .
Response: 19.1

Request: If you can, please state the reported growth value of O=C(/C=C/C=C/c1csc(Br)n1)NO .
Response: 84.8

Request: If you can, please state the reported growth value of O=C1Nc2cc(Cl)ccc2/C1=C\c1ccc(OCc2ccccc2)cc1 .
Response: 95.9

---

System: RXF 393 renal
test: NCI-60 one-dose screen, 48 h (100 = growth as untreated, 0 = no growth, -100 = all killed)
experimentalConditions: 10 µM unless noted
About 83,000 compounds went through this panel and 20% of them were active in at least one assay; those are over-represented in the sample as a whole.
Reported growth by item:
The reply should contain only the number, in %.

Previously resolved entries follow.
O=C1Nc2ccccc2/C1=C/c1ccc(OCC(=O)c2ccccc2)cc1 = 101
C#CCOc1ccc(/C=N/Nc2nc(-c3ccc(OC)cc3)cs2)cc1 = 99.1
Brc1cccc(-c2cc(-c3cnc4c(c3)OCCO4)n[nH]2)c1 = 47.9
O=C(CCCCCCNC(=O)C(O)(O)C(F)(F)F)Nc1ncc(-c2ccccc2)s1 = -48.5
CN1CCN(c2ccc(Nc3nc(NCCNS(=O)(=O)c4ccc5ccccc5c4)c4sccc4n3)cc2)CC1 = 29.4

Next up:
Request: If you can, please state the reported growth value of CCc1cc(O)ccc1Nc1cc(-c2ccc(-n3cccn3)cc2)[nH]n1 .
Response: 108

---

Tested on: UO-31 renal
test: NCI-60 one-dose screen, 48 h
experimentalConditions: 10 µM unless noted
About 83,000 compounds went through this panel and 20% of them were active in at least one assay; those are over-represented in the sample as a whole. Calls of active or inactive are those of the source. Rule for the calls: active = growth percent below 10; inactive = the rest.
Pick from active, inactive when you respond.

C#C[C@]1(O)CC[C@H]2[C@@H]3CC=C4c5sc(Nc6cc(Cl)ccc6OC)nc5CC[C@]4(C)[C@H]3CC[C@@]21C = inactive
CCN(CC)CCOc1ccc(C(=C(C)c2ccc(OC)cc2)c2ccc(OCCN(CC)CC)cc2)cc1 = active
COc1ccc(NC(=O)CCCCCCNC(=O)C(O)(O)C(F)(F)F)cc1 = inactive
O=[N+]([O-])c1ccc(NC(=S)NNC(=S)Nc2ccc(Br)cc2)cc1 = inactive
CC1=C(C)C(=O)C(Nc2ccc3c(c2)OCCO3)=C(Br)C1=O = inactive

Okay, next one:
Request: Assay result, entry N#CC1=C2NCCCNc3oc(nc3C#N)Cc3ccccc3CC(=N1)O2 — outcome?
Response: inactive

---

Tested on: MCF7 breast
test: NCI-60 one-dose screen, 48 h (100 = growth as untreated, 0 = no growth, -100 = all killed)
experimentalConditions: 10 µM unless noted
Compounds without any hit were thinned out: in the full panel of roughly 83,000, 20% have a hit.
parameterMeasured: growth (%)
The reply should contain only the number, in %.

Request: If you can, please state the reported growth value of Cc1ccc2c(n1)C(=O)C(Cl)=C(Nc1cccc(C(F)(F)F)c1)C2=O .
Response: -54.7

Request: If you can, please state the reported growth value of CCCc1cc2cc(-n3nc(CC)c4c3CC(C)(C)CC4=O)cc(NC3CCC(O)CC3)c2c(=O)[nH]1 (stereo not drawn) .
Response: 17.7

Request: If you can, please state the reported growth value of Cn1cc(-c2nn3cc(-c4ccncc4)nc3s2)c2cc(F)ccc21 .
Response: 18.2

Request: If you can, please state the reported growth value of O=C(CSc1nc2ccccc2c(=O)n1-c1ccc(S(=O)(=O)Nc2ccc(Cl)nn2)cc1)Nc1ccc(S(=O)(=O)Nc2ccc(Cl)nn2)cc1 .
Response: 95.3

Request: If you can, please state the reported growth value of CCCCCCNC(=O)Oc1ccc(/C(=C(/C)c2ccc(OC)cc2)c2ccc(OCCN3CCCCCC3)cc2)cc1 .
Response: -30.3

Request: If you can, please state the reported growth value of O=C1CSC(c2cn(-c3ccccc3)nc2-c2ccc(Cl)cc2)N1c1ccccc1 (stereo not drawn) .
Response: 83.5

Request: If you can, please state the reported growth value of CCOP(=O)(OCC)OC[C@]12CC[C@@H](C)[C@H](C)C1C1=CC[C@@H]3[C@@]4(C)CCCNC(C)(C)[C@@H]4CC[C@@]3(C)[C@]1(C)CC2 (stereo partly drawn) .
Response: -59.8

Request: If you can, please state the reported growth value of O=S(=O)(NCCCNc1nccc(-c2[nH]c(-c3ccccc3)nc2-c2ccc(F)c(O)c2)n1)c1cccc(F)c1 .
Response: 78.3
